Hey, just so you know, these numbers are from patent US9976134B2.

# method notes: Stability assay in 25% TIDE 2X detergent with DTPA (residual Abz-AGLA-Nba protease activity)
# Format: physicochemical
# measurement context: 60 min at 32°C; variant residual AGLA activity divided by wild-type residual activity
reported property: PI (relative stability), 25% TIDE 2X with DTPA

# molecule, experimental value
rows = [
    ("T278S: single-substitution thermolysin variant (SEQ ID NO:3 numbering) (protein, listed as Geobacillus caldoproteolyticus) ITGTSTVGVGRGVLGDQKNINTTYSTYYYLQDNTRGNGIFTYDAKYRTTLPGSLWADADNQFFASYDAPAVDAHYYAGVTYDYYKNVHNRLSYDGNNAAIRSSVHYSQGYNNAFWNGSQMVYGDGDGQTFIPLSGGIDVVAHELTHAVTDYTAGLIYQNESGAINEAISDIFGTLVEFYANKNPDWEIGEDVYTPGISGDSLRSMSDPAKYGDPDHYSKRYTGTQDNGGVHINSGIINKAAYLISQGGTHYGVSVVGIGRDKLGKIFYRALTQYLTPSSNFSQLRAAAVQSATDLYGSTSQEVASVKQAFDAVGVK", 1.08),
]
